# Test system: ATXN2-luc
# test.protocol: MSSR pilot screen: ATXN2-luc luciferase assay (Bright-Glo) in H2 cells, single 10 μM dose
# Format: cell-based, human
# assay.setup: pilot screen
Where a name gives a salt, the structure may show the parent alone.
The threshold is -4 SD. Values of SD from mean (pilot screen) beneath it are tagged t; values meeting or exceeding it are tagged f.

As a guide, the following entries are already answered.
Exam item: Does the reported SD from mean (pilot screen) of O=c1[nH]c(=O)n([C@H]2C[C@H](O)[C@@H](CO)O2)cc1C(F)(F)F [Trifluridine] stay below -4 SD?
Marked response: t

Exam item: Given the entry C1CCC(N=C(NC23CC4CC(CC(C4)C2)C3)N2CCOCC2)CC1.Cl [U-37883A] , would its reported SD from mean (pilot screen) be below -4 SD?
Marked response: t

Exam item: Identify whether the compound C[C@@H]1O[C@@H](O[C@H]2CC[C@]3(C=O)[C@H]4CC[C@]5(C)[C@@H](C6=CC(=O)OC6)CC[C@]5(O)[C@@H]4CC[C@]3(O)C2)[C@H](O)[C@H](O)[C@H]1O [CONVALLATOXIN] records SD from mean (pilot screen) below -4 SD.
Marked response: f

Exam item: # TODO verify SD from mean (pilot screen) < -4 SD strictly for this compound: C[n+]1cc2c3c(ccc2c2ccc4cc5c(cc4c21)OCO5)OCO3 [Sanguinarine]
Marked response: f

Exam item: Given the entry CC(C)=CCc1c(O)cc2occ(-c3ccc4c(c3)OCO4)c(=O)c2c1O [DERRUBONE] , would its reported SD from mean (pilot screen) be below -4 SD?
Marked response: f

New cases:
Exam item: Does the reported SD from mean (pilot screen) of [H]/N=C(/NCCCCC)N/N=C/c1c[nH]c2ccc(OC)cc12 [TEGASEROD MALEATE] stay below -4 SD?
Marked response: f

Exam item: Hi there! Is SD from mean (pilot screen) for CO[C@H]1[C@H](O)[C@H](O[C@H]2CC[C@@]3(C)[C@H](CC[C@@H]4[C@@H]3CC[C@]3(C)[C@@H](C5=CC(=O)OC5)CC[C@]43O)C2)O[C@@H](C)[C@@H]1O [NERIIFOLIN] below -4 SD, do you know?
Marked response: f

Exam item: In plain terms, does CC(=O)O[C@H]1CC[C@@]2(C)[C@H](CC[C@@H]3[C@@H]2CC[C@]2(C)[C@@H](C4=CC(=O)OC4)[C@@H](OC(C)=O)C[C@]32O)C1 [GITOXIGENIN DIACETATE] come in under -4 SD for SD from mean (pilot screen)?
Marked response: t

====

# System: ATXN2-luc
# test.protocol: MSSR pilot screen: ATXN2-luc luciferase assay (Bright-Glo) in H2 cells, single 10 μM dose
# Assay type: cell-based, human
# assay.setup: pilot screen
reported.property: SD from mean (pilot screen) (SD)
// note: answer is a bare numeric in SD

Solved cases (2 shown):
Exam item: Could you share which SD from mean (pilot screen) value was measured for "C[C@H]1O[C@@H](O[C@H]2[C@@H](O)C[C@H](O[C@H]3[C@@H](O)C[C@H](O[C@H]4CC[C@@]5(C)[C@H](CC[C@@H]6[C@@H]5CC[C@]5(C)[C@@H](C7=CC(=O)OC7)CC[C@]65O)C4)O[C@@H]3C)O[C@@H]2C)C[C@H](O)[C@@H]1O" ?
Marked response: -4.100

Exam item: Dear colleague, I am looking for the recorded SD from mean (pilot screen) of the following compound: CO[C@H]1[C@H](O)[C@H](O[C@H]2CC[C@@]3(C=O)[C@H](CC[C@@H]4[C@@H]3CC[C@]3(C)[C@@H](C5=CC(=O)OC5)CC[C@]43O)C2)O[C@@H](C)[C@@H]1O [PERUVOSIDE]
Marked response: -4.038

As a next step, examine the compound that follows.
Exam item: What value of SD from mean (pilot screen) has been recorded for this entry: "CO[C@H]1C[C@H](O[C@H]2CC[C@]3(C=O)[C@H]4CC[C@]5(C)[C@@H](C6=CC(=O)OC6)CC[C@]5(O)[C@@H]4CC[C@]3(O)C2)O[C@H](C)[C@H]1O"
Marked response: -4.099
